Assay: 13-week oral toxicity study in rats
Format: in vivo, rat
Conditions: both sexes, rat, in vivo; 13-week oral, sesame oil formulation, rats (summary)
Measurement type: NOAEL at 13 weeks (mg/kg)
Provide the reading as a plain figure in mg/kg.

// field: NOAEL at 13 weeks; key: C=C(C)[C@@H]1CCC(C)=C[C@H]1c1c(O)cc(CCCC)cc1O ; value = 100

----------
Assay: Embryo-foetal development study in rats
Assay type: in vivo, rat
Conditions: female, Wistar (Han), rat, in vivo; oral gavage GD 6-17; read-out: NOAEL for maternal and embryo-foetal toxicity
Measurement type: NOAEL (mg/kg/day)
Provide the reading as a plain figure in mg/kg/day.

// field: NOAEL; key: C=C(C)[C@@H]1CCC(C)=C[C@H]1c1c(O)cc(CCCC)cc1O ; value = 100
